TARGET OF ASSAY: Hexokinase-4 (Homo sapiens) + Glucokinase regulatory protein (Homo sapiens) (UniProt P35557+Q14397)
Sequence (P35557 whole entry, looked up): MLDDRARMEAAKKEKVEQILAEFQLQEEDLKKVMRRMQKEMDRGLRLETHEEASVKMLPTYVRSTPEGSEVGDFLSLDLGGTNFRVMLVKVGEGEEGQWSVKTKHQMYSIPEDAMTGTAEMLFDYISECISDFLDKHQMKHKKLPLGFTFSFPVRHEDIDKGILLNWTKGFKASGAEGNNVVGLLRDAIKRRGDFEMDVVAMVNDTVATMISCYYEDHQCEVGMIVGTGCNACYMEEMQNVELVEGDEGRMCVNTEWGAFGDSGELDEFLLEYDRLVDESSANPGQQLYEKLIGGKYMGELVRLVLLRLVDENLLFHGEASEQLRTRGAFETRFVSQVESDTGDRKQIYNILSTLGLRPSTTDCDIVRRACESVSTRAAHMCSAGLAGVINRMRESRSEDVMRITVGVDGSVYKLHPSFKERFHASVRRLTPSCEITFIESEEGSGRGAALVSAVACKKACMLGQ
Sequence (Q14397 whole entry, looked up): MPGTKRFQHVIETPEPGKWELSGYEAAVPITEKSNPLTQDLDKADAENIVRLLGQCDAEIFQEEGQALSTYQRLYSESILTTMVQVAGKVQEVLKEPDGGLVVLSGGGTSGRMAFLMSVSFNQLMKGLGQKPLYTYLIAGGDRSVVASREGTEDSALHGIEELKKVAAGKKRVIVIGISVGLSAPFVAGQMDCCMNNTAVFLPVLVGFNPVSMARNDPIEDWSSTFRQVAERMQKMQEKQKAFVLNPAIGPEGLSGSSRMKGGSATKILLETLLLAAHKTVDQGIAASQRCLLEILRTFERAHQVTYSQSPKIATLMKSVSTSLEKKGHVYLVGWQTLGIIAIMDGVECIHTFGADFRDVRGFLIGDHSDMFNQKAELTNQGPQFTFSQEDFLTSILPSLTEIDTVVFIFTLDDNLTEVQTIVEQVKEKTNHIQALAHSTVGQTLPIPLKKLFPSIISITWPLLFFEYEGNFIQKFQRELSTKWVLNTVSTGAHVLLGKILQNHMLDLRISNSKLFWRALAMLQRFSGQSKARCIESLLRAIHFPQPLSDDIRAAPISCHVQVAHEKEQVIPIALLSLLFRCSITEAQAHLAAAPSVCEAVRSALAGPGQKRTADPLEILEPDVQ
EXPERIMENTAL PROTOCOL: qHTS assay for inhibitors of recombinant human GCK-GKRP interaction: Diaphorase-coupled assay (AID 743205)
ASSAY CONTEXT: G6PDH/diaphorase resorufin fluorescence; series mostly up to 57.5 µM
Calls of active or inactive are those of the source. Calls come from the whole dose curve; as a rule, active = well fitted curve in the direction sought with a large enough effect; inconclusive = small, poorly fitted or top-dose-only effect, or another doubt; inactive = no such curve, though single readings can be large or run the other way.
Outcomes: 1.0 for active, 0.0 for inactive

> print(dat)
                                    compound  category
 1                      CN1CCc2cccc(Cl)c2CC1       0.0
 2                       CN(N=O)c1cc(O)ccc1O       0.0
 3  COc1ccc2c(c1)[C@@]13CCCC[C@H]1[C@@H](C2)NCC3       0.0
 4  C=CCN1CCC23c4c5ccc(O)c4O[C@H]2C(=O)CC[C@@]3(O)C1C5 (stereo partly specified)       0.0
 5  Cc1o[nH]c(=O)c1CC(N)C(=O)O (stereo unspecified)       0.0
 6               O=c1c2ccccc2[se]n1-c1ccccc1       1.0
 7                     CN(N=O)c1ccc(O)c(O)c1       0.0
 8                      C[Se]C[C@H](N)C(=O)O       0.0
 9  NC(=O)c1cc(N2CC2)c([N+](=O)[O-])cc1[N+](=O)[O-]       0.0
10  NCC(CP(=O)(O)O)c1ccc(Cl)cc1 (stereo unspecified)       0.0
11  COc1ccc2c(c1)C13CCCCC1C(C2)N(C)CC3 (stereo unspecified)       0.0
12                Clc1ccc(N2CC3CCC(C2)N3)nn1       0.0
13  CC(C)(C)c1o[nH]c(=O)c1CC(N)C(=O)O (stereo unspecified)       0.0
14                   Cc1sc2ccccc2c1CC1=NCCN1       0.0
15           CCCN(CCC)[C@@H]1CCc2cccc(O)c2C1       0.0
16  C=CCN1CCc2cccc3c2[C@H]1Cc1ccc(O)c(O)c1-3       0.0
17                   Cc1cc([C@@H]2CCCN2C)on1       0.0
18                        CP(=O)(O)C1=CCNCC1       0.0
19  CC(C)[C@@]1(NC(=O)[C@@H]2C[C@@H]3c4cccc5[nH]cc(c45)C[C@H]3N(C)C2)O[C@@]2(O)[C@@H]3CCCN3C(=O)[C@H](Cc3ccccc3)N2C1=O       0.0
20  CCS(=O)(=O)Nc1cccc(C(=C2CCCCC2)c2cnc[nH]2)c1       0.0
21  CN1CC[C@@]2(C)c3cc(O)ccc3N(C)C12 (stereo partly specified)       0.0
22  C[C@H](Cc1ccc2c(c1)OC(C(=O)O)(C(=O)O)O2)NC[C@H](O)c1cccc(Cl)c1       0.0
23         CCCN(CCC)[C@H]1CCc2c(F)ccc(O)c2C1       0.0
24                                  NC(=O)CI       0.0
25  Oc1ccc2c3c1O[C@H]1c4oc5ccccc5c4C[C@@]4(O)C(C2)N(CC2CC2)CCC314 (stereo partly specified)       0.0
26               C[C@H](N)CN1CCc2ccc(Br)cc21       0.0
27        C/C(O)=C(\C#N)C(=O)Nc1cc(Br)ccc1Br       0.0
28  O=S1(=O)N(CCN2CC=C(c3c[nH]c4cc(F)ccc34)CC2)c2cccc3c2N1CCC3       0.0
29              C[C@H](N)Cc1cccc(C(F)(F)F)c1       0.0
30  CC(N)c1cccc(Cl)c1Cl (stereo unspecified)       0.0
31                O=C(O)c1cc[c]([Hg][Cl])cc1       0.0
32  OC1CCCCC1N1CCC(c2ccccc2)CC1 (stereo unspecified)       0.0
33       C[N+](C)(C)CC#CCOC(=O)Nc1cccc(Cl)c1       0.0
34  CCCCCCC(C)(C)c1ccc([C@@H]2C[C@H](O)CC[C@H]2CCCO)c(O)c1       0.0
35  C[C@]12Cc3cn4c(nc3C=C1CCC1C2CC[C@@]2(C)[C@H]1CC[C@@]2(O)C#N)nc1ccccc14 (stereo partly specified)       0.0
36             C=CCN(C1=NCCN1)c1c(Cl)cccc1Cl       0.0

Where do the numbers come from? From PubChem BioAssay (NCATS).
